# System: c-Abl (mouse)
# protocol-notes: phosphorylation enrichment, bacterial display (enrichment ratio); higher = better substrate or ligand; peptides without Tyr show the background
measure-name: phosphorylation enrichment
In your answer, state the number alone without any accompanying words.

Previously resolved entries follow.
SEKISYVYMKR [SSX7_Y48_L43S]; 0.538
NFDRVYIFHLR [MYOF_Y1137_YF]; 0.91
RSDEDYLCREE [POR_Y573_Y575C]; 1.01
KKILCYIQGGS [HYDIN_Y4610_N4606K]; 1.07
VTQEPYELYCE [CBL_Y368_Q367P]; 0.74

Kindly consider the entry below.
Problem: Entry under review: KGSLPYSLILD [PKD1L2_Y406_N407S] . Reported phosphorylation enrichment?
Solution: 0.86

====

Collected phosphorylation enrichment values appear next to each entry.
# tgt: EPHB2 (UniProt P29323)
# Sequence (P29323 whole entry, looked up): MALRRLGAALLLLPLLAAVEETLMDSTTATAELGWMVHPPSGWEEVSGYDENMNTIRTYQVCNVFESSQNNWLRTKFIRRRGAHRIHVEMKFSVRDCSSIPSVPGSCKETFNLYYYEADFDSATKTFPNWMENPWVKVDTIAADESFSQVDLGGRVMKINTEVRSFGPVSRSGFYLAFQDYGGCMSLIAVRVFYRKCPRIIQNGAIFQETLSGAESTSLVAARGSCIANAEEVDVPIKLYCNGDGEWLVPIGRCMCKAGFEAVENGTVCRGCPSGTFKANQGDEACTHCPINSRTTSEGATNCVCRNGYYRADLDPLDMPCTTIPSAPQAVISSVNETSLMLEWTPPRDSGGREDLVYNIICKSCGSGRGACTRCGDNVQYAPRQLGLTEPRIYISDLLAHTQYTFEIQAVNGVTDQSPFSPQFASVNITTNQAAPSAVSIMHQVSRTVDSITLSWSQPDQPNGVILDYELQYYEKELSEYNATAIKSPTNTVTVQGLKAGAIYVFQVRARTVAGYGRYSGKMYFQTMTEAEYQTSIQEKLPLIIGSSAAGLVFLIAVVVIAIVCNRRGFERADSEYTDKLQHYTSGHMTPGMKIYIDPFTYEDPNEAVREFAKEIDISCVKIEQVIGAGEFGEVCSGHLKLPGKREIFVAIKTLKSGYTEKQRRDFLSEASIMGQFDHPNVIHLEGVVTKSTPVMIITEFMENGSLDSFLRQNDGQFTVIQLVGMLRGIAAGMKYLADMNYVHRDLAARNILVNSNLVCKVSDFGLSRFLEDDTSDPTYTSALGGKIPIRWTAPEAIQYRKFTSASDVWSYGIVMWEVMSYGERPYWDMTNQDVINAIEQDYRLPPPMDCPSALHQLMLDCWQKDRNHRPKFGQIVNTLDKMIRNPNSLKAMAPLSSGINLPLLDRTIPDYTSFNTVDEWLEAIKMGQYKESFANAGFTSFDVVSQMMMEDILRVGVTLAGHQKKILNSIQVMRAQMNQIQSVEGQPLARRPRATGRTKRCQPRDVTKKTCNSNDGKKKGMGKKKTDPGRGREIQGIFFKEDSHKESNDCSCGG
# protocol-notes: phosphorylation enrichment, bacterial display (enrichment ratio); higher = better substrate or ligand; peptides without Tyr show the background
In your answer, state the number alone without any accompanying words.

KLMTEYKRRKQ [ARFGEF3_Y2029_K2031R]; 0.496
DPYHVYIKNHV [KCNE3_Y95_R99H]; 0.459
SSSPTYLDLPF [GLI3_Y168_P169L]; 2.73

Problem: Entry under review: NHQFDYTFDWT [CSNK1A1_Y294_YF] . Reported phosphorylation enrichment?
Solution: 0.721

Problem: Entry under review: VIEFSYTSADG [DHCR7_Y382_C380Y_YF] . Reported phosphorylation enrichment?
Solution: 0.504

Problem: Entry under review: YSKTQYNQVPS [CXADR_Y318] . Reported phosphorylation enrichment?
Solution: 0.318

Problem: Entry under review: AVRFIYTIDGS [DCX_Y105_G100A_YF] . Reported phosphorylation enrichment?
Solution: 0.552

Problem: Entry under review: VDLSKYITTIA [FAS_Y232] . Reported phosphorylation enrichment?
Solution: 0.341

Problem: Entry under review: FSKRIYKGMVA [PCDH15_Y931] . Reported phosphorylation enrichment?
Solution: 0.5

Problem: Entry under review: YIATQYSLRPR [LBR_Y166] . Reported phosphorylation enrichment?
Solution: 0.493

====

Collected SH2 binding enrichment values appear next to each entry.
# tgt: SHP2-C SH2
# protocol-notes: SH2 binding enrichment of the phosphorylated peptide, bacterial display (enrichment ratio); higher = better substrate or ligand; peptides without Tyr show the background
In your answer, state the number alone without any accompanying words.

Previously resolved entries follow.
RLLRGYDQFAY [HLA-C_Y137_S140F]; 1.14
CTLLPYFSARV [DGKE_Y269_YF]; 0.711
AGTILYHAHLD [ASS1_Y291]; 0.74
EVTRLYGSVCD [TC2N_Y154_K151T]; 0.379
NPQKSYFIRLF [WAS_Y83_YF]; 0.945
EKHGQYLIGHG [EPHB4_Y581_D576E]; 0.664
QDDYSYPSRQM [LDLR_Y847_G844D]; 0.564
HAVFVCDICHV [TWNK_Y508_Y508C_YF]; 1.41
NVTGHYISPFH [PPA2_Y59]; 1.11
KELSNYKHLTL [SLIT2_Y776]; 0.634

Problem: Entry under review: RPSELYYSKIG [SMG1_Y2253] . Reported SH2 binding enrichment?
Solution: 1.1

Problem: Entry under review: RSRSSYTHGLN [MYCT1_Y116] . Reported SH2 binding enrichment?
Solution: 0.917

Problem: Entry under review: VNTMLYEKFTY [TEK_Y1108_T1106M] . Reported SH2 binding enrichment?
Solution: 0.872

Problem: Entry under review: SLDLSYYPTSS [EMD_Y181] . Reported SH2 binding enrichment?
Solution: 0.819
